# protocol notes: Compound was tested for initial contractile force 0.4+/-0.1 g (% deltabase line value)
I'd appreciate it if you could supply Delta values for the items below.
API: value field is a number in %; no unit string.

Tell me measured Delta for N=C(N)N/N=C/c1c(-c2ccc(Cl)cc2Cl)nc2n1CCS2 please.
119

Tell me measured Delta for N=C(N)N/N=C/c1c(-c2ccc(Cl)cc2Cl)nc2sccn12 please.
100

Tell me measured Delta for Cc1csc2nc(Cl)c(/C=N/N=C(N)N)n12 please.
134

Tell me measured Delta for Cc1cn2c(/C=N/N=C(N)N)c(-c3ccc(Cl)cc3)nc2s1 please.
106

Tell me measured Delta for Cc1csc2nc(-c3ccc(Cl)cc3)c(/C=N/N=C(N)N)n12 please.
115

Tell me measured Delta for N=C(N)N/N=C/c1c(-c2ccc(Cl)cc2)nc2sc(Cl)cn12 please.
100

Tell me measured Delta for COc1cc([S+](C)[O-])ccc1-c1nc2ncccc2[nH]1 (configuration not stated) please.
163

Tell me measured Delta for Cc1sc2nc(Cl)c(/C=N/N=C(N)N)n2c1C please.
137

Tell me measured Delta for N=C(N)N/N=C/c1c(-c2ccc(Cl)c(Cl)c2Cl)nc2n1CCS2 please.
111

Tell me measured Delta for Cc1sc2nc(-c3ccc(Cl)cc3)c(/C=N/N=C(N)N)n2c1C please.
118

Tell me measured Delta for Cc1cn2c(/C=N/N=C(N)N)c(Cl)nc2s1 please.
146

Tell me measured Delta for N=C(N)N/N=C/c1c(Cl)nc2sc(Cl)cn12 please.
135
